test-target: mitochondrial complex I in UACC-62-R cells
method-summary: Seahorse XF96 bioenergetics (OCR, complex I-mediated respiration, glycolysis)
measurement-conditions: read-out: IC50 to inhibit complex I-mediated respiration; 1 h treatment, UACC-62-R
quantity: pIC50
pIC50 (log units): -log10 of the concentration in mol/L.

IN: API: value(readout=pIC50, system=mitochondrial complex I in UACC-62-R cells) for record "C=CCc1ccc(O)c(-c2cc(CC=C)ccc2OC[P+](c2ccccc2)(c2ccccc2)c2ccccc2)c1.[Br-]"
OUT: 6.18

----------
test-target: mitochondrial complex I in UACC-62-WT cells
method-summary: Seahorse XF96 bioenergetics (OCR, complex I-mediated respiration, glycolysis)
measurement-conditions: read-out: IC50 to inhibit complex I-mediated respiration; 1 h treatment, UACC-62-WT
quantity: IC50 (µM)
Report the figure in µM without appending any unit label.

IN: What IC50 value was documented for this molecule, C=CCc1ccc(O)c(-c2cc(CC=C)ccc2OC[P+](c2ccccc2)(c2ccccc2)c2ccccc2)c1.[Br-] [Mito-MGN] ?
OUT: 0.35
